test system: B16-F10; assay: Growth inhibition of mouse B16F10 cells by MTT assay; assay type: functional
GI50 vs 9 µM: less than gives 1 (yes); not less than gives 0 (no).

Inquiry: Below 9 µM on GI50? Entry "C#CCCCCO[C@H]1[C@H]2c3cc4c(cc3CN3CCC(=C[C@@H]1O[Si](C(C)C)(C(C)C)C(C)C)[C@H]23)OCO4"
Reply text: 1 (yes)

Inquiry: Below 9 µM on GI50? Entry "C=CCCO[C@H]1C=C2CCN3Cc4cc5c(cc4[C@H]([C@@H]1O)[C@@H]23)OCO5"
Reply text: 0 (no)

Inquiry: Below 9 µM on GI50? Entry "C#CCCCO[C@H]1C=C2CCN3Cc4cc5c(cc4[C@H]([C@@H]1O)[C@@H]23)OCO5"
Reply text: 1 (yes)

Inquiry: Below 9 µM on GI50? Entry "C#CCCCCO[C@H]1[C@H]2c3cc4c(cc3CN3CCC(=C[C@@H]1OCCCCC#C)[C@H]23)OCO4"
Reply text: 0 (no)

----------
Give GI50 for every item shown.
tested on: MCF7; experiment: Growth inhibition of human MCF7 cells by MTT assay; format: functional

Inquiry: GET /values?readout=GI50&item= "COCCO[C@H]1C=C2CCN3Cc4cc5c(cc4[C@H]([C@@H]1O)[C@@H]23)OCO5"
Reply text: 74 µM

Inquiry: GET /values?readout=GI50&item= "CO[C@H]1C=C2CCN3Cc4cc5c(cc4[C@H]([C@@H]1O)[C@@H]23)OCO5"
Reply text: > 100 µM

Inquiry: GET /values?readout=GI50&item= "C#CCCCO[C@H]1[C@H]2c3cc4c(cc3CN3CCC(=C[C@@H]1O[Si](C(C)C)(C(C)C)C(C)C)[C@H]23)OCO4"
Reply text: 27 µM

Inquiry: GET /values?readout=GI50&item= "C1=C2CCN3Cc4cc5c(cc4[C@H]([C@H](OC/C=C/c4ccccc4)[C@H]1OC/C=C/c1ccccc1)[C@@H]23)OCO5"
Reply text: 4.2 µM

----------
tested on: B16-F10; assay: Growth inhibition of mouse B16F10 cells by MTT assay; format: functional
Give log10 of GI50 for every item shown.
Please be aware that the numbers have been log10-transformed from GI50 in µM.

Inquiry: Please tell me: log10 of GI50 of "C#CCCCCO[C@H]1C=C2CCN3Cc4cc5c(cc4[C@H]([C@@H]1O[Si](C(C)C)(C(C)C)C(C)C)[C@@H]23)OCO5" , system B16-F10?
Reply text: 0.94

Inquiry: Please tell me: log10 of GI50 of "CSCO[C@H]1C=C2CCN3Cc4cc5c(cc4[C@H]([C@@H]1O)[C@@H]23)OCO5" , system B16-F10?
Reply text: 1.71

Inquiry: Please tell me: log10 of GI50 of "C#CCO[C@H]1[C@H]2c3cc4c(cc3CN3CCC(=C[C@@H]1OCC#C)[C@H]23)OCO4" , system B16-F10?
Reply text: 1.45

Inquiry: Please tell me: log10 of GI50 of "O[C@H]1[C@H]2c3cc4c(cc3CN3CCC(=C[C@@H]1OC[C@@H]1CO1)[C@H]23)OCO4" , system B16-F10?
Reply text: 1.71

Inquiry: Please tell me: log10 of GI50 of "CO[C@H]1[C@H]2c3cc4c(cc3CN3CCC(=C[C@@H]1O)[C@H]23)OCO4" , system B16-F10?
Reply text: 1.59

Inquiry: Please tell me: log10 of GI50 of "O[C@H]1[C@H]2c3cc4c(cc3CN3CCC(=C[C@@H]1O)[C@H]23)OCO4" , system B16-F10?
Reply text: 0.41

Inquiry: Please tell me: log10 of GI50 of "C1=C2CCN3Cc4cc5c(cc4[C@H]([C@H](OC[C@@H]4CO4)[C@H]1OC[C@@H]1CO1)[C@@H]23)OCO5" , system B16-F10?
Reply text: 1.85

Inquiry: Please tell me: log10 of GI50 of "C1=C2CCN3Cc4cc5c(cc4[C@H]([C@H](OCC4CC4)[C@H]1OCC1CC1)[C@@H]23)OCO5" , system B16-F10?
Reply text: 1.43

Inquiry: Please tell me: log10 of GI50 of "O[C@H]1[C@H]2c3cc4c(cc3CN3CCC(=C[C@@H]1OCC1CCC1)[C@H]23)OCO4" , system B16-F10?
Reply text: 1.34

Inquiry: Please tell me: log10 of GI50 of "O[C@H]1[C@H]2c3cc4c(cc3CN3CCC(=C[C@@H]1OCc1cccnc1)[C@H]23)OCO4" , system B16-F10?
Reply text: 1.82

Inquiry: Please tell me: log10 of GI50 of "CCO[C@H]1[C@H]2c3cc4c(cc3CN3CCC(=C[C@@H]1OCC)[C@H]23)OCO4" , system B16-F10?
Reply text: 1.26

Inquiry: Please tell me: log10 of GI50 of "COCCO[C@H]1[C@H]2c3cc4c(cc3CN3CCC(=C[C@@H]1OCCOC)[C@H]23)OCO4" , system B16-F10?
Reply text: 1.58

Inquiry: Please tell me: log10 of GI50 of "C1=C2CCN3Cc4cc5c(cc4[C@H]([C@H](OC/C=C/c4ccccc4)[C@H]1OC/C=C/c1ccccc1)[C@@H]23)OCO5" , system B16-F10?
Reply text: 0.62

Inquiry: Please tell me: log10 of GI50 of "CO[C@H]1[C@H]2c3cc4c(cc3CN3CCC(=C[C@@H]1O[Si](C(C)C)(C(C)C)C(C)C)[C@H]23)OCO4" , system B16-F10?
Reply text: 0.95

Inquiry: Please tell me: log10 of GI50 of "CC(C)[Si](O[C@H]1[C@H]2c3cc4c(cc3CN3CCC(=C[C@@H]1O)[C@H]23)OCO4)(C(C)C)C(C)C" , system B16-F10?
Reply text: 0.98

Inquiry: Please tell me: log10 of GI50 of "COCCO[C@H]1C=C2CCN3Cc4cc5c(cc4[C@H]([C@@H]1O)[C@@H]23)OCO5" , system B16-F10?
Reply text: 1.60

Inquiry: Please tell me: log10 of GI50 of "C=Cc1cccc2c1N(C)Cc1cc3c(cc1-2)OCO3" , system B16-F10?
Reply text: 1.53

Inquiry: Please tell me: log10 of GI50 of "CCCO[C@H]1[C@H]2c3cc4c(cc3CN3CCC(=C[C@@H]1OCCC)[C@H]23)OCO4" , system B16-F10?
Reply text: 1.11

Inquiry: Please tell me: log10 of GI50 of "C1=C2CCN3Cc4cc5c(cc4[C@H]([C@H](OCc4cccnc4)[C@H]1OCc1cccnc1)[C@@H]23)OCO5" , system B16-F10?
Reply text: 1.93

Inquiry: Please tell me: log10 of GI50 of "C#CCO[C@H]1C=C2CCN3Cc4cc5c(cc4[C@H]([C@@H]1O)[C@@H]23)OCO5" , system B16-F10?
Reply text: 1.62

Inquiry: Please tell me: log10 of GI50 of "CO[C@H]1C=C2CCN3Cc4cc5c(cc4[C@H]([C@@H]1O)[C@@H]23)OCO5" , system B16-F10?
Reply text: 1.60

Inquiry: Please tell me: log10 of GI50 of "C#CCCCO[C@H]1[C@H]2c3cc4c(cc3CN3CCC(=C[C@@H]1O[Si](C(C)C)(C(C)C)C(C)C)[C@H]23)OCO4" , system B16-F10?
Reply text: 0.88

Inquiry: Please tell me: log10 of GI50 of "CC(C)=CCO[C@H]1[C@H]2c3cc4c(cc3CN3CCC(=C[C@@H]1OCC=C(C)C)[C@H]23)OCO4" , system B16-F10?
Reply text: 0.72

Inquiry: Please tell me: log10 of GI50 of "COCO[C@H]1C=C2CCN3Cc4cc5c(cc4[C@H]([C@@H]1O)[C@@H]23)OCO5" , system B16-F10?
Reply text: 1.74

Inquiry: Please tell me: log10 of GI50 of "C#CCO[C@H]1[C@H]2c3cc4c(cc3CN3CCC(=C[C@@H]1O[Si](C(C)C)(C(C)C)C(C)C)[C@H]23)OCO4" , system B16-F10?
Reply text: 0.79

Inquiry: Please tell me: log10 of GI50 of "COCO[C@H]1[C@H]2c3cc4c(cc3CN3CCC(=C[C@@H]1OCOC)[C@H]23)OCO4" , system B16-F10?
Reply text: 1.49

Inquiry: Please tell me: log10 of GI50 of "C#CCCCCO[C@H]1C=C2CCN3Cc4cc5c(cc4[C@H]([C@@H]1O)[C@@H]23)OCO5" , system B16-F10?
Reply text: 1.53

Inquiry: Please tell me: log10 of GI50 of "O[C@H]1[C@H]2c3cc4c(cc3CN3CCC(=C[C@@H]1OC/C=C/c1ccccc1)[C@H]23)OCO4" , system B16-F10?
Reply text: 0.62

Inquiry: Please tell me: log10 of GI50 of "C=CCO[C@H]1[C@H]2c3cc4c(cc3CN3CCC(=C[C@@H]1O[Si](C(C)C)(C(C)C)C(C)C)[C@H]23)OCO4" , system B16-F10?
Reply text: -0.10

Inquiry: Please tell me: log10 of GI50 of "C1=C2CCN3Cc4cc5c(cc4[C@H]([C@H](OCC4CCC4)[C@H]1OCC1CCC1)[C@@H]23)OCO5" , system B16-F10?
Reply text: 0.90

Inquiry: Please tell me: log10 of GI50 of "C#CCCCO[C@H]1[C@H]2c3cc4c(cc3CN3CCC(=C[C@@H]1OCCCC#C)[C@H]23)OCO4" , system B16-F10?
Reply text: 1.23
